- System: Es-2
- Method: Primary qHTS to identify gynecologic anti-cancer compounds using libraries of approved drugs and bioactive compounds (AID 1345084); further: on the % scale 0 is the no-effect control and ±100 the full control effect; nearly all actives have a fitted effect of over 55% in size
- Condition notes: Gynecologic cancer cell panel viability, ATPlite luminescence, 48 h; series mostly up to 57.5 µM
Inconclusive results are not listed. Activity calls are given as the source filed them. The call rests on the fitted dose curve; in most records, active means well fitted cell-killing curve with a large enough effect; inconclusive means small, poorly fitted or top-dose-only effect, or effect the other way; inactive means flat fitted curve, though single readings scatter.
Metric: activity change, negative = cytotoxicity

# example entries with known answers
The measured activity change, negative = cytotoxicity associated with COC(=O)C12C(=O)C(C)=C(O)C1(C)C(C)=CC1C34CCC(OC3=O)C(C)(C)C4CCC12C (stereo not given) reads inactive

The measured activity change, negative = cytotoxicity associated with `OCc1ccccc1O[C@@H]1O[C@H](CO)[C@@H](O)[C@H](O)[C@H]1O` reads inactive

The measured activity change, negative = cytotoxicity associated with `OC[C@H]1O[C@@H](Oc2ccc3c(c2)OC[C@H]2c4cc5c(cc4O[C@@H]32)OCO5)[C@H](O)[C@@H](O)[C@@H]1O` reads inactive

The measured activity change, negative = cytotoxicity associated with C=CC(C)(O)CO[C@@H]1O[C@H](CO)[C@@H](O)[C@H](O)[C@H]1O (stereo not given in full) reads inactive

The measured activity change, negative = cytotoxicity associated with C[C@H]1[C@H](C)CC[C@]2(C(=O)O[C@@H]3O[C@H](CO)[C@@H](O)[C@H](O)[C@H]3O)CC[C@]3(C(=O)O)C(=CCC4[C@@]5(C)CC[C@H](O[C@@H]6O[C@H](CO)[C@@H](O)[C@H](O)[C@H]6O)C(C)(C)C5CC[C@]43C)[C@H]12 (stereo not given in full) reads -10.9% [at 11.6 µM] (inactive)

***
The measured activity change, negative = cytotoxicity associated with `CC(=O)O[C@H]1[C@H](C)[C@@H](O)[C@H]2[C@@H]1C=C(C(=O)O)[C@H]1C[C@@H]3[C@H]([C@H]21)[C@H]1C(=O)O[C@@H]2CC[C@@]3(C)O[C@]1(O)[C@@H]2C` reads inactive

The measured activity change, negative = cytotoxicity associated with C/C=C(\C)C(=O)O[C@@H](C)[C@H]1CC[C@]2(O)C3CCC4C[C@@H](OC5CC(OC)C(OC6CC(OC)C(OC7CC(OC)C(OC8OC(C)C(OC9OC(CO)C(O)C(O)C9O)C(OC)C8O)C(C)O7)C(C)O6)C(C)O5)CC[C@]4(C)C3[C@H](O)[C@@H](O)[C@]12C (stereo not given in full) reads 10.2% [at 6.55 µM] (inactive)

The measured activity change, negative = cytotoxicity associated with COc1ccc(/C=C/C(=O)O[C@@H]2[C@@H](O)[C@H](C)O[C@@H](OC3C4C=COC(O[C@@H]5O[C@H](CO)[C@@H](O)[C@H](O)[C@H]5O)C4C4(CO)OC34)[C@@H]2O)cc1OC (stereo not given in full) reads inactive

The measured activity change, negative = cytotoxicity associated with `OC[C@H]1O[C@@H](Oc2cc(O)cc(-c3cc4ccc(O)cc4o3)c2)[C@H](O)[C@@H](O)[C@@H]1O` reads inactive

The measured activity change, negative = cytotoxicity associated with CCC(CCO[C@@H]1O[C@H](CO[C@H]2OC[C@](O)(CO)[C@H]2O)[C@@H](O)[C@H](O)[C@H]1O)C(C)(C)O (stereo not given in full) reads inactive

The measured activity change, negative = cytotoxicity associated with `CCCCNC(=O)[C@@H]1Cc2ccccc2N1C(=O)[C@@H](N)CC` reads inactive

The measured activity change, negative = cytotoxicity associated with `COc1ccc2c(c1)OC[C@]1(O)c3cc4c(cc3O[C@H]21)OCO4` reads inactive

The measured activity change, negative = cytotoxicity associated with `CC(C)CC(=O)OC[C@H]1O[C@@](COC(=O)CC(C)C)(O[C@H]2O[C@H](CO)[C@@H](O)[C@H](O)[C@H]2O)[C@@H](OC(=O)CC(C)C)[C@@H]1OC(=O)CC(C)C` reads inactive

The measured activity change, negative = cytotoxicity associated with C=CC1(C)CC2=CCC3C(C)(C(=O)O)CCCC3(C)C2CC1OC(C)=O (stereo not given) reads inactive

----------
- Tested on: CP185
- Method: qHTS profiling for inhibitors of Plasmodium falciparum proliferation (AID 504749); further: nearly all actives have a fitted effect of over 60% in size
- Condition notes: P. falciparum in erythrocytes, SYBR Green DNA, 72 h; series mostly up to 28.7 µM
- Description: NIH National Institute of Allergy and Infectious Diseases [NIAID] NIH Chemical Genomics Center [NCGC] […] Because mature erythrocytes lack DNA, only Plasmodium-derived DNA is detected. NCGC Assay Protocol Summary: The SYBR Green viability assay was adapted from a method described previously (Plouffe et al., 2008). […] The following morning, fluorescence intensity at 485(14) nm excitation and 535(25) nm emission wavelengths was measured on an EnVision (Perkin Elmer) plate reader. […]
Results filed as inconclusive are left out. The source made the active and inactive calls. Calls come from the whole dose curve; as a rule, active = well fitted inhibition curve with a large enough effect; inconclusive = small, poorly fitted or top-dose-only effect; inactive = flat fitted curve, though single readings scatter.
Result category, one only: yes (active), no (inactive)

Query: Entry `O=S(=O)(O)c1ccc2c(N=Nc3ccc(S(=O)(=O)O)c4ccccc34)c(O)c(S(=O)(=O)O)cc2c1` : call = ?
Reply: no

Query: Entry CO[C@H](C(=O)[C@@H](O)[C@@H](C)O)C1Cc2cc3cc(O[C@H]4C[C@@H](O[C@H]5C[C@@H](O)[C@H](O)[C@@H](C)O5)[C@@H](O)[C@@H](C)O4)c(C)c(O)c3c(O)c2C(=O)[C@H]1O[C@H]1C[C@@H](O[C@H]2C[C@@H](O[C@H]3C[C@](C)(O)[C@H](O)[C@@H](C)O3)[C@H](O)[C@@H](C)O2)[C@H](O)[C@@H](C)O1 (some centres undefined) : call = ?
Reply: yes

Query: Entry `CCCCCCOc1ccc(C(=N)N(CCCC)CCCC)c2ccccc12` : call = ?
Reply: yes

Query: Entry `CCCC(=O)O[C@]1(C(=O)CCl)[C@H](C)C[C@@H]2[C@H]3CCC4=CC(=O)C=C[C@]4(C)[C@@]3(F)C(=O)C[C@@]21C` : call = ?
Reply: yes

Query: Entry `CN=C(NC#N)Nc1ccc(C2=NNC(=O)C[C@@H]2C)cc1` : call = ?
Reply: no

Query: Entry CC(Cc1ccc(O)c(O)c1)C(C)Cc1ccc(O)c(O)c1 (centres undefined) : call = ?
Reply: no

Query: Entry `CC(C)=O` : call = ?
Reply: no

Query: Entry `CCOC(=O)C1=C(C)NC(C)=C(C(=O)OCC)C1c1ccccc1C=CC(=O)OC(C)(C)C` : call = ?
Reply: yes

Query: Entry `CCCCCCCC(=O)O` : call = ?
Reply: no

Query: Entry `CC(C)N=c1cc2n(-c3ccc(Cl)cc3)c3ccccc3nc-2cc1Nc1ccc(Cl)cc1` : call = ?
Reply: no

Query: Entry `CO[C@H]1C[C@@H]2CC[C@@H](C)[C@@](O)(O2)C(=O)C(=O)N2CCCC[C@H]2C(=O)O[C@H]([C@H](C)C[C@@H]2CC[C@@H](OCCO)[C@H](OC)C2)CC(=O)[C@H](C)/C=C(\C)[C@@H](O)[C@@H](OC)C(=O)[C@H](C)C[C@H](C)/C=C/C=C/C=C/1C` : call = ?
Reply: yes

Query: Entry `C[C@H]1C[C@H]2[C@@H]3CCC4=CC(=O)C=C[C@]4(C)[C@@]3(F)[C@@H](O)C[C@]2(C)[C@@]1(O)C(=O)CO` : call = ?
Reply: no

Query: Entry CCC(=O)NCCC1CCc2ccc3c(c21)CCO3 (centres undefined) : call = ?
Reply: no

Query: Entry `CCCCCCCCCCCCCCCC(=O)OCC(COC(=O)CCCCCCCCCCCCCCC)OC(=O)CCCCCCCCCCCCCCC` : call = ?
Reply: no

Query: Entry `CCNC(=O)[C@@H]1CCCN1C(=O)[C@H](CCCN=C(N)N)NC(=O)[C@H](CC(C)C)NC(=O)[C@@H](Cc1c[nH]c2ccccc12)NC(=O)[C@H](Cc1ccc(O)cc1)NC(=O)[C@H](CO)NC(=O)[C@H](Cc1c[nH]c2ccccc12)NC(=O)[C@H](Cc1cnc[nH]1)NC(=O)[C@@H]1CCC(=O)N1` : call = ?
Reply: yes

Query: Entry `C[C@]12CCC(=O)C=C1CC[C@@H]1[C@@H]2[C@@H](O)C[C@@]2(C)[C@H]1CC[C@]2(O)C(=O)COP(=O)(O)O` : call = ?
Reply: no

Query: Entry `C#CCOc1ccc2c(C)cc(=O)oc2c1` : call = ?
Reply: no

Query: Entry `Cc1c(C)c2c(c(C)c1O)CC[C@@](C)(CCC[C@@H](C)CCC[C@@H](C)CCCC(C)C)O2` : call = ?
Reply: no

Query: Entry `CC[C@@]1(O)C(=O)OCc2c1cc1n(c2=O)Cc2cc3c([N+](=O)[O-])cccc3nc2-1` : call = ?
Reply: yes

----------
- Test system: PC49
- Method: qHTS profiling for inhibitors of Plasmodium falciparum proliferation (AID 504749); further: nearly all actives have a fitted effect of over 60% in size
- Condition notes: P. falciparum in erythrocytes, SYBR Green DNA, 72 h; series mostly up to 28.7 µM
Results filed as inconclusive are left out. Calls of active or inactive are those of the source. The call rests on the fitted dose curve; in most records, active means well fitted inhibition curve with a large enough effect; inconclusive means small, poorly fitted or top-dose-only effect; inactive means flat fitted curve, though single readings scatter.
Result category, one only: label 1 for active, label 0 for inactive

Query: Entry COC(=O)C1=C(C#N)NC(C)=C(C(=O)OC(C)C)C1c1cccc([N+](=O)[O-])c1 (centres undefined) : call = ?
Reply: label 1

Query: Entry `CCN(CC)Cc1cc(Nc2ccnc3cc(Cl)ccc23)ccc1O` : call = ?
Reply: label 1

Query: Entry CC(NNC(=O)c1ccccc1)c1ccccc1 (centres undefined) : call = ?
Reply: label 0

Query: Entry COC(C(=O)C(O)C(C)O)C1Cc2cc3cc(OC4CC(OC5CC(O)C(O)C(C)O5)C(O)C(C)O4)c(C)c(O)c3c(O)c2C(=O)C1OC1CC(OC2CC(OC3CC(C)(O)C(O)C(C)O3)C(O)C(C)O2)C(O)C(C)O1 (centres undefined) : call = ?
Reply: label 0

Query: Entry `CC1(C)S[C@@H]2[C@H](NC(=O)[C@@H](NC(=O)N3CCNC3=O)c3ccccc3)C(=O)N2[C@H]1C(=O)O` : call = ?
Reply: label 0

Query: Entry `C[C@]12CCC(=O)C=C1CC[C@@H]1[C@@H]2[C@@H](O)C[C@@]2(C)[C@H]1CC[C@]2(O)C(=O)COP(=O)(O)O` : call = ?
Reply: label 0

Query: Entry `O=C1C(=O)c2ncccc2-c2cccnc21` : call = ?
Reply: label 1

Query: Entry `COCC(=O)Nc1cc(Sc2ccccc2)ccc1N=C(NC(=O)OC)NC(=O)OC` : call = ?
Reply: label 0

Query: Entry `CCN(CC)CCOc1ccc(-c2nc3cc(Cl)ccc3s2)cc1` : call = ?
Reply: label 0

Query: Entry CCC(=O)NCCC1CCc2ccc3c(c21)CCO3 (centres undefined) : call = ?
Reply: label 0

Query: Entry `O=C(O)c1cc(=O)c2c3nc4ccccc4oc-3cc(=O)c2[nH]1` : call = ?
Reply: label 0

Query: Entry `CCOC(C)=O` : call = ?
Reply: label 0

Query: Entry `CN(C)CCCN1c2ccccc2C(C)(C)c2ccccc21` : call = ?
Reply: label 0

Query: Entry `CCOc1ccc2c(c1)C(C)=CC(C)(C)N2` : call = ?
Reply: label 0

Query: Entry `CCCCC/C=C\C/C=C\CCCCCCCC(=O)O` : call = ?
Reply: label 0

Query: Entry `O=C(O)c1cc(O)c2c(c1)[O][Bi][O]2` : call = ?
Reply: label 0

Query: Entry CC(=O)Oc1c(C)cc(OCC(O)CNC(C)C)c(C)c1C (centres undefined) : call = ?
Reply: label 0

Query: Entry C[C@@H]1CCC2[C@@H](C)[C@@H](O)O[C@@H]3O[C@@]4(C)CC[C@@H]1[C@@]23OO4 (some centres undefined) : call = ?
Reply: label 1

Query: Entry Nc1c(Br)cc(Br)cc1CNC1CCC(O)CC1 (centres undefined) : call = ?
Reply: label 0

Query: Entry `CCOc1ccc(N=Nc2ccc(N)cc2N)cc1` : call = ?
Reply: label 0

Query: Entry `C[C@H]1C[C@H]2[C@@H]3CCC4=CC(=O)C=C[C@]4(C)[C@@]3(F)[C@@H](O)C[C@]2(C)[C@@]1(O)C(=O)CO` : call = ?
Reply: label 0

Query: Entry CC(O)CO (centres undefined) : call = ?
Reply: label 0

Query: Entry CC(Cc1ccc(O)c(O)c1)C(C)Cc1ccc(O)c(O)c1 (centres undefined) : call = ?
Reply: label 0

Query: Entry `COC(=O)[C@H]1[C@H]2C[C@@H]3c4[nH]c5ccccc5c4CCN3C[C@H]2C[C@@H](OC(=O)c2cc(OC)c(OC)c(OC)c2)[C@@H]1OC` : call = ?
Reply: label 1
